- assay-notes: Selectivity index, ratio of IC50 for preferential cytotoxicity against human MIA PaCa-2 cells in DMEM to PC50 for preferential cytotoxicity against human MIA PaCa-2 cells in nutrient-deprived medium
- Format: functional
In this section we review reported Selectivity Index values for a set of molecules.
// print number alone

The measured Selectivity Index associated with CC(C)=CCCC1=CC[C@H](C(=O)c2c(O)cccc2O)[C@@H](c2ccccc2F)C1 (relative stereo) reads 29.6

The measured Selectivity Index associated with CC(C)=CCCC1=CC[C@H](C(=O)c2c(O)cccc2O)[C@@H](c2ccc(F)cc2)C1 (relative stereo) reads 38.6

The measured Selectivity Index associated with COc1cc(O)c(C(=O)[C@H]2CC=C(CCC=C(C)C)C[C@@H]2c2c(F)cccc2F)c(O)c1 (relative stereo) reads 17

More entries:
The measured Selectivity Index associated with COc1cc(O)c(C(=O)[C@H]2CC=C(CCC=C(C)C)C[C@@H]2c2ccc(Cl)cc2)c(O)c1 (relative stereo) reads 23.8
